Taken from patent EP3628672A1.

Molecular target: purified LasB protein from P. aeruginosa (Pseudomonas aeruginosa)
Construct: purchased Merck or Charles River Laboratories
Assay: Fluorometric assay to determine Ki (Abz-Ala-Gly-Leu-Ala-p-Nitro-Benzyl-Amide substrate)
Format: biochemical
measurement_kind: Ki

smiles_text: CN(C)[C@H]1CCN(C(=O)c2ccc(-c3csc(CNC(=O)C4(CC(=O)O)Cc5ccccc5C4)n3)cc2)C1
measurement_kind: Ki
readout_value: 200 to 10000 nM

smiles_text: C[N+]1(CCOc2ccc(-c3csc(CNC(=O)C4(CC(=O)[O-])Cc5ccccc5C4)n3)cc2S(C)(=O)=O)CCOCC1
measurement_kind: Ki
readout_value: 50 to 200 nM

smiles_text: CN1CCN(C(=O)CN2CCC(n3cc(-c4csc(CNC(=O)C5(CC(=O)O)Cc6ccccc6C5)n4)cn3)CC2)CC1
measurement_kind: Ki
readout_value: 50 to 200 nM

smiles_text: O=C(O)CC1(C(=O)NCc2nc(-c3cnn(CCCN4CCOCC4)c3)cs2)Cc2ccccc2C1
measurement_kind: Ki
readout_value: 50 to 200 nM

smiles_text: C[N+]1(C)CCN(S(=O)(=O)c2cccc(-c3csc(CNC(=O)C4(CC(=O)[O-])Cc5ccccc5C4)n3)c2)CC1
measurement_kind: Ki
readout_value: 200 to 10000 nM

smiles_text: CN(C)CCn1cc(-c2csc(CNC(=O)C3(CC(=O)O)Cc4ccccc4C3)n2)cn1
measurement_kind: Ki
readout_value: 200 to 10000 nM

smiles_text: COc1cc(OCCCN(C)C)ccc1-c1csc(CNC(=O)C2(CC(=O)O)Cc3cc(F)c(F)cc3C2)n1
measurement_kind: Ki
readout_value: 50 to 200 nM

smiles_text: C[n+]1ccc(COc2ccc(-c3csc(CNC(=O)C4(CC(=O)[O-])Cc5ccccc5C4)n3)cc2)cc1
measurement_kind: Ki
readout_value: 50 to 200 nM

Provide Ki values for the following items, in order.
1. CN(C)C1CN(C(=O)c2ccc(-c3csc(CNC(=O)C4(CC(=O)O)Cc5ccccc5C4)n3)cc2)C1
2. COc1cc(OCCCN2CCOCC2)ccc1-c1csc(CNC(=O)C2(CC(=O)O)Cc3ccccc3C2)n1
3. COc1cc(OCCC[N+]2(C)CCCC2)ccc1-c1csc(CNC(=O)C2(CC(=O)[O-])Cc3cc(F)c(F)cc3C2)n1
4. Cc1cc(-c2csc(CNC(=O)C3(CC(=O)O)Cc4ccccc4C3)n2)n[nH]1

Data returned:
200 to 10000 nM
< 50 nM
50 to 200 nM
200 to 10000 nM

###

Can you tell me Ki for the items I'm about to list?
Biological target: purified LasB protein from P. aeruginosa (Pseudomonas aeruginosa)
Construct: purchased Merck or Charles River Laboratories
Assay: Fluorometric assay to determine Ki (Abz-Ala-Gly-Leu-Ala-p-Nitro-Benzyl-Amide substrate)
Format: biochemical

Recorded Ki, per entry:
smiles_text: O=C(O)CC1(C(=O)NCc2nc(-c3ccncc3)cs2)Cc2ccccc2C1
assayed_system: purified LasB protein from P. aeruginosa (Pseudomonas aeruginosa)
Ki: 200 to 10000 nM
--
smiles_text: O=C(O)CC1(C(=O)NCc2nc(-c3ccc(Cl)cc3)cs2)Cc2ccccc2C1
assayed_system: purified LasB protein from P. aeruginosa (Pseudomonas aeruginosa)
Ki: 50 to 200 nM
--
smiles_text: O=C(O)CC1(C(=O)NCc2nc(-c3ccccc3)cs2)Cc2cc(F)c(F)cc2C1
assayed_system: purified LasB protein from P. aeruginosa (Pseudomonas aeruginosa)
Ki: < 50 nM

Provide Ki values for the following items, in order.
1. C[N+](C)(C)CC(=O)Nc1ccc(-c2csc(CNC(=O)C3(CC(=O)[O-])Cc4ccccc4C3)n2)cc1
2. C[n+]1ccc(COc2ccc(-c3csc(CNC(=O)C4(CC(=O)[O-])Cc5ccccc5C4)n3)cn2)cc1
3. CN1C[C@@H]2CN(c3ccc(-c4csc(CNC(=O)C5(CC(=O)O)Cc6ccccc6C5)n4)cc3)C[C@@H]2C1

Data returned:
["200 to 10000 nM", "50 to 200 nM", "200 to 10000 nM"]

###

Biological target: LasB (Pseudomonas aeruginosa, UniProt P14756)
Construct: uses as source of enzyme dialysed supernatant from P. aeruginosa PAO1; endogenous in cells; host or cells: P. aeruginosa PAO1 culture supernatant, filtered and dialysed
Test: Elastin assay to determine % inhibition (Elastin Congo-Red, dialysed culture supernatant)
Assay type: biochemical, P. aeruginosa PAO1
Settings: read-out: Elastin hydrolysis % inhibition @ 50 / 25 µM inhibitor concentration
measurement_kind: inhibition at 25 µM

Recorded inhibition at 25 µM, per entry:
compound: C[N+]1(CCCOc2ccc(-c3csc(CNC(=O)C4(CC(=O)[O-])Cc5ccccc5C4)n3)cc2S(C)(=O)=O)CCOCC1 [Example 61]
readout_value: 60 to 75%
//
compound: COc1ccc(-c2csc(CNC(=O)C3(CC(=O)O)Cc4ccccc4C3)n2)cc1S(=O)(=O)N1CCN(C)CC1 [Example 122]
readout_value: > 75%
//
compound: O=C(O)CC1(C(=O)NCc2nc(-c3ccccc3)cs2)Cc2cc(F)c(F)cc2C1 [Example 3]
readout_value: > 75%
//
compound: O=C(O)CC1(C(=O)NCc2nc(-c3cncnc3)cs2)Cc2ccccc2C1 [Example 94]
readout_value: 60 to 75%
//
compound: C[n+]1ccc(COc2ccc(-c3csc(CNC(=O)C4(CC(=O)[O-])Cc5ccccc5C4)n3)cc2)cc1 [Example 51]
readout_value: 60 to 75%
//
compound: COc1ccc(-c2csc(CNC(=O)C3(CC(=O)O)Cc4ccccc4C3)n2)cc1 [Example 6]
readout_value: > 75%

Data request: Param item = C[n+]1ccc(Cn2cc(-c3csc(CNC(=O)C4(CC(=O)[O-])Cc5ccccc5C4)n3)cn2)cc1 [Example 120] ; retrieve measured inhibition at 25 µM.
Data returned: 60 to 75%

###

Target: LasB (Pseudomonas aeruginosa, UniProt P14756)
Construct: uses as source of enzyme dialysed supernatant from P. aeruginosa PAO1; endogenous in cells; host or cells: P. aeruginosa PAO1 culture supernatant, filtered and dialysed
Assay: Elastin assay to determine % inhibition (Elastin Congo-Red, dialysed culture supernatant)
Type: biochemical, P. aeruginosa PAO1
Conditions: read-out: Elastin hydrolysis % inhibition @ 50 / 25 µM inhibitor concentration
Can you tell me inhibition at 25 µM for the items I'm about to list?

Recorded inhibition at 25 µM, per entry:
compound: CN1CCC(n2cc(-c3csc(CNC(=O)C4(CC(=O)O)Cc5ccccc5C4)n3)cn2)CC1 [Example 102]
readout_value: 60 to 75%
//
compound: CN(C)CCNS(=O)(=O)c1cccc(-c2csc(CNC(=O)C3(CC(=O)O)Cc4ccccc4C3)n2)c1 [Example 129]
readout_value: 60 to 75%
//
compound: COc1cc(N2CC(N(C)C)C2)ccc1-c1csc(CNC(=O)C2(CC(=O)O)Cc3ccccc3C2)n1 [Example 32]
readout_value: > 75%
//
compound: COc1ccc(-c2csc(CNC(=O)C3(CC(=O)O)Cc4ccccc4C3)n2)cc1S(=O)(=O)N1CCC(N(C)C)CC1 [Example 121]
readout_value: 60 to 75%
//
compound: C[N+]1(CCc2ccc(-c3csc(CNC(=O)C4(CC(=O)[O-])Cc5ccccc5C4)n3)cn2)CCOCC1 [Example 141]
readout_value: 60 to 75%

Provide inhibition at 25 µM values for the following items, in order.
1. Cc1cc(-c2csc(CNC(=O)C3(CC(=O)O)Cc4ccccc4C3)n2)n[nH]1 [Example 98]
2. COc1cc(OCC[N+]2(C)CCN(C)C(=O)C2)ccc1-c1csc(CNC(=O)C2(CC(=O)[O-])Cc3ccccc3C2)n1 (stereo not shown) [Example 84]

Data returned:
["60 to 75%", "60 to 75%"]

###

Target: purified LasB protein from P. aeruginosa (Pseudomonas aeruginosa, UniProt P14756)
Construct: purchased Merck or Charles River Laboratories
Sequence (P14756 198-498): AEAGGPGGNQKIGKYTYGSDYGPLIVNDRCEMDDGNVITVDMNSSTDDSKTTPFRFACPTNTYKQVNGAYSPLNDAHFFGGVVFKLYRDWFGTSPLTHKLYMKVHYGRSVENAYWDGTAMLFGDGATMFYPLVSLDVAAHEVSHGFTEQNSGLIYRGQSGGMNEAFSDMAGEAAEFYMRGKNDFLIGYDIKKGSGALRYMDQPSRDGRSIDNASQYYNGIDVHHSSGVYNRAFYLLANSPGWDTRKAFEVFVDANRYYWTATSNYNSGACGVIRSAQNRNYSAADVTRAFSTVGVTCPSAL
Assay: Fluorometric assay to determine Ki (Abz-Ala-Gly-Leu-Ala-p-Nitro-Benzyl-Amide substrate)
Type: biochemical
pKi: −log10 of the molar value.
measurement_kind: pKi

molecule: COc1ccc(-c2csc(CNC(=O)C3(CC(=O)O)Cc4ccccc4C3)n2)cc1C(=O)N1CCC(N(C)C)CC1 [Example 137]
measurement_kind: pKi
readout_value: 6.70 to 7.30
--
molecule: COc1ccc(C(=O)N2CCN(C)CC2)cc1-c1csc(CNC(=O)C2(CC(=O)O)Cc3ccccc3C2)n1 [Example 25]
measurement_kind: pKi
readout_value: 5.00 to 6.70

Provide pKi values for the following items, in order.
1. CN1CCN(C(=O)N2CCN(CCCn3cc(-c4csc(CNC(=O)C5(CC(=O)O)Cc6ccccc6C5)n4)cn3)CC2)CC1 [Example 112]
2. C[N+]1(CCCOc2ccc(-c3csc(CNC(=O)C4(CC(=O)[O-])Cc5ccccc5C4)n3)cc2)CCOCC1 [Example 56]
3. CN1CCN(C(=O)c2cncc(-c3csc(CNC(=O)C4(CC(=O)O)Cc5ccccc5C4)n3)c2)CC1 [Example 144]
4. CN1CCN(S(=O)(=O)c2cccc(-c3csc(CNC(=O)C4(CC(=O)O)Cc5ccccc5C4)n3)c2)CC1 [Example 127]
5. O=C(O)CC1(C(=O)NCc2nc3ccccc3s2)Cc2cc(Cl)c(Cl)cc2C1 [Example 4]
6. CN1CCC(C(=O)N2CCN(CCCn3cc(-c4csc(CNC(=O)C5(CC(=O)O)Cc6ccccc6C5)n4)cn3)CC2)CC1 [Example 114]
7. O=C(O)CC1(C(=O)NCc2nc(-c3cccc(O)c3)cs2)Cc2ccccc2C1 [Example 12]

Data returned:
6.70 to 7.30
6.70 to 7.30
5.00 to 6.70
6.70 to 7.30
5.00 to 6.70
6.70 to 7.30
6.70 to 7.30
